Data provenance: ChEMBL document CHEMBL3862032

Listed below: IC50 values for each entry.
experimental protocol: Cytotoxicity against human MDA-MB-361/DYT2 cells assessed as decrease in cell viability after 4 days by MTS assay
Assay type: functional, cell-based
test conditions: MDA-MB-361, 96 h
Entry rule: numbers only, all in nM.

Use these answered entries as a reference point.
| molecule | unit label | IC50 |
| --- | --- | --- |
| CC[C@H](C)[C@H](NC(=O)[C@@H]1C[C@@H](O)CN1C)C(=O)N(C)[C@H](C[C@@H](OC(C)=O)c1nc(C(=O)N[C@@H](Cc2ccccc2)C[C@H](C)C(=O)OC)cs1)C(C)C | nM | 26.9 |
| CC[C@H](C)[C@H](NC(=O)[C@@]1(C)CCCN1C)C(=O)N(C)[C@H](C[C@@H](OC(C)=O)c1nc(C(=O)NC(CO)Cc2ccccc2)cs1)C(C)C (mixture of isomers) | nM | 16.5 |
| CC[C@H](C)[C@H](NC(=O)[C@H]1CCCCN1C)C(=O)N(C)[C@H](C[C@@H](OC(C)=O)c1nc(C(=O)N[C@@H](Cc2ccccc2)[C@@H](O)C(=O)OC)cs1)C(C)C | nM | 0.27 |

Record `CC[C@H](C)[C@H](NC(=O)[C@H]1CCCCN1C)C(=O)N(C)[C@H](C[C@@H](OC(C)=O)c1nc(C(=O)N[C@@H](Cc2ccccc2)c2nccs2)cs1)C(C)C` , field IC50: 0.95

---

experimental protocol: Cytotoxicity against human MDA-MB-361/DYT2 cells assessed as decrease in cell viability after 4 days by MTS assay
Type: functional, cell-based
test conditions: MDA-MB-361, 96 h
pIC50: −log10 of the molar value.
Assign class by pIC50: not lower than 9 means 1 (yes); lower than 9 means 0 (no).

| chem smiles | class |
| --- | --- |
| CCNC(=O)O[C@H](C[C@H](C(C)C)N(C)C(=O)[C@@H](NC(=O)[C@@]1(C)CCCN1C)[C@@H](C)CC)c1nc(C(=O)N[C@@H](Cc2ccc(N)cc2)C[C@H](C)C(=O)O)cs1 | 0 (no) |
| CC[C@H](C)[C@H](NC(=O)[C@H]1CCCCN1C)C(=O)N(C)[C@H](C[C@@H](OC(C)=O)c1nc(C(=O)N[C@@H](Cc2ccccc2)C[C@H](C)C(=O)OC)cs1)C(C)C | 1 (yes) |
| CC[C@H](C)[C@H](NC(=O)[C@@]1(C)CCCN1C)C(=O)N(C)[C@H](C[C@@H](OC(C)=O)c1nc(C(=O)NCCn2nnc3ccccc32)cs1)C(C)C | 0 (no) |
| CC[C@H](C)[C@H](NC(=O)[C@H]1CCCCN1C)C(=O)N(C)[C@H](C[C@@H](OC(C)=O)c1nc(C(=O)N[C@@H](Cc2ccccc2)CN2CCOCC2)cs1)C(C)C | 1 (yes) |
| CC[C@H](C)[C@H](NC(=O)[C@H]1CCCCN1C)C(=O)N(C)[C@H](C[C@@H](OC(C)=O)c1nc(C(=O)N[C@@H](Cc2ccccc2)C(=O)N2CCCCC2)cs1)C(C)C | 0 (no) |
| CC[C@H](C)[C@H](NC(=O)[C@@]1(C)CCCN1)C(=O)N(C)[C@H](C[C@@H](OC(C)=O)c1nc(C(=O)N[C@@H](Cc2ccccc2)C[C@H](C)C(=O)OC)cs1)C(C)C | 0 (no) |
| CC[C@H](C)[C@H](NC(=O)[C@H]1CCCCN1C)C(=O)N(C)[C@H](C[C@@H](OC(C)=O)c1nc(C(=O)N[C@H](CNS(C)(=O)=O)Cc2ccccc2)cs1)C(C)C | 1 (yes) |

In the following, a different compound is considered.
Evaluate `CC[C@H](C)[C@H](NC(=O)[C@H]1CCCCN1C)C(=O)N(C)[C@H](C[C@@H](OC(C)=O)c1nc(C(=O)N[C@@H](Cc2ccccc2)C[C@H](C)C(=O)O)cs1)C(C)C` : pIC50 at minimum 9?
1 (yes)
